Each recorded value in this set is attributed to paper PMC9920998.

- Tested on: Huh-7 cells (human hepatoma cell)
- method-notes: MTT cytotoxicity assay, Huh-7
- Assay type: cell-based
- test-parameters: Huh-7, MTT, 48 h exposure
pIC50: −log10 of the molar value.
readout-kind: pIC50

Item under review: N.N.[Cl][Pt][Cl] [Cisplatin] . Reported pIC50?
< 3.70

----------
- Tested on: HT-29 cells (human colon cancer)
- method-notes: MTT cytotoxicity assay, HT-29
- Assay type: cell-based
- test-parameters: HT-29, MTT, 48 h exposure
- Protocol: Having obtained a series of structurally diverse OA-dithiocarbamates, we next performed a systematic biological evaluation to examine whether introducing an extra dithiocarbamate group could improve antitumor activities. […] Moreover, the cytotoxicities of compounds 3a-3t were also evaluated in human normal hepatocytes (LO2) to determine whether these compounds preferred killing tumor cells over normal cells. […]
pIC50: −log10 of the molar value.
readout-kind: pIC50

Item under review: N.N.[Cl][Pt][Cl] [Cisplatin] . Reported pIC50?
< 3.70
